All values here come from patent US8609656B2.

# System: VEGF non-dependent human umbilical vein endothelial cells (HUVEC)
# testMethodNotes: Cell growth inhibition test, VEGF non-dependent HUVEC
# Assay type: cell-based
# conditionsUsed: 72 hours, WST-1, read-out: HUVEC (VEGF Nondependence), 50% Growth Inhibition Concentration (IC50 value)
Where a name gives a salt, the structure may show the parent alone.
testReadout: IC50 (nM)
Enter your answer as a number in nM; do not include the unit.

Solved entries:
CNc1ncnc2c1ncn2-c1ccc(NC(=O)Nc2ccc(N(C)C)c(C(F)(F)F)c2)cc1: 4000
CNc1ncnc2c1ncn2-c1ccc(NC(=O)Nc2ccc(Cl)c(C(F)(F)F)c2)cc1.Cl [Table 1, Compound 36, hydrochloride]: 250
CNc1ncnc2c1ncn2-c1ccc(NC(=O)Nc2ccc(CN3CCN(C)CC3)c(C(F)(F)F)c2)cc1: 130
CNc1ncnc2c1ncn2-c1ccc(NC(=O)Nc2ccc(OC3CCN(C)CC3)c(C(F)(F)F)c2)cc1: 900
Nc1ncnc2c1ncn2-c1ccc(N(O)C(=O)Nc2ccc(Cl)c(C(F)(F)F)c2)cc1 [Table 1, Compound 49, hydrochloride]: 4100
CNc1ncnc2c1ncn2-c1ccc(N(O)C(=O)Nc2ccc(Cl)c(C(F)(F)F)c2)cc1: 2800
CN1CCN(Cc2ccc(NC(=O)Nc3ccc(-n4cnc5cnccc54)cc3)cc2C(F)(F)F)CC1: 3100
CCCNC(=O)Nc1ncnc2c1ncn2-c1ccc(NC(=O)Nc2ccc(Cl)c(C(F)(F)F)c2)cc1: 970

Now look at this entry.
Name the recorded IC50 of the item CNc1ncnc2c1ncn2-c1ccc(NC(=O)Nc2ccc(OCCOC)c(C(F)(F)F)c2)cc1 in your answer.
900

---

# Tested on: VEGF non-dependent human umbilical vein endothelial cells (HUVEC)
# testMethodNotes: Cell growth inhibition test, VEGF non-dependent HUVEC
# Assay type: cell-based
# conditionsUsed: 72 hours, WST-1, read-out: HUVEC (VEGF Nondependence), 50% Growth Inhibition Concentration (IC50 value)
testReadout: IC50 (nM)
Report only the number, with the unit nM understood.

Worked set:
O=C(Nc1ccc(-n2cnc3cnccc32)cc1)Nc1ccc(Cl)c(C(F)(F)F)c1: 2100
CNc1ncnc2c1ncn2-c1ccc(NC(=O)Nc2ccc(CN3CC(C)NC(C)C3)c(C(F)(F)F)c2)cc1 (stereo not shown): 4200
CNc1ncnc2c1ncn2-c1ccc(NC(=O)Nc2cc(CN3CCN(C)CC3)cc(C(F)(F)F)c2)cc1: 1700
CNc1ncnc2c1ncn2-c1ccc(NC(=O)Nc2ccc(CCCN(C)C)c(C(F)(F)F)c2)cc1: 900
CNc1ncnc2c1ncn2-c1ccc(NC(=O)Nc2cccc(C(F)(F)F)c2)cc1: 1900
CNc1ncnc2c1ncn2-c1ccc(NC(=O)Nc2cc(N(C)C)cc(C(F)(F)F)c2)cc1: 3700

Next compound, IC50 to be filled in.
Quote VEGF non-dependent human umbilical vein endothelial cells (HUVEC) IC50 for entry CNc1ncnc2c1ncn2-c1ccc(NC(=O)Nc2ccc(OCCN(C)C)c(C(F)(F)F)c2)cc1 .
3800

---

Reported IC50 values follow for various molecules
# assayedTarget: recombinant Raf-1 protein (activated type GST-Raf-1) (Homo sapiens)
# Construct: fused on or other part: GST tag fused to Raf-1
# testMethodNotes: RAF-1 enzyme inhibition test (33P incorporation into MEK 1 protein)
# conditionsUsed: 10 μM ATP, GST-MEK1 substrate, 30° C., 45 minutes; read-out: Raf-1 Enzyme Inhibition, 50% Enzyme Inhibition Concentration (IC50 value)
Where a name gives a salt, the structure may show the parent alone.

Worked set:
CNc1ncnc2c1ncn2-c1ccc(NC(=O)Nc2cc(CCCN3CCCC3)cc(C(F)(F)F)c2)cc1: 73 nM
CNc1ncnc2c1ncn2-c1ccc(NC(=O)Nc2cc(CCN(C)C)cc(C(F)(F)F)c2)cc1: 190 nM
CNc1ncnc2c1ncn2-c1ccc(NC(=O)Nc2cc(C(=O)NCC(O)CO)cc(C(F)(F)F)c2)cc1 (stereo not shown): 130 nM
CNc1ncnc2c1ncn2-c1ccc(NC(=O)Nc2cc(CCN3CCCC3)cc(C(F)(F)F)c2)cc1: 130 nM
N[C@@H](CCC(=O)Nc1ncnc2c1ncn2-c1ccc(NC(=O)Nc2ccc(Cl)c(C(F)(F)F)c2)cc1)C(=O)O [Table 1, Compound 104, hydrochloride]: 74 nM

Answer with the recorded IC50 of CN(C)/C=N\c1ncnc2c1ncn2-c1ccc(NC(=O)Nc2ccc(Cl)c(C(F)(F)F)c2)cc1 only.
42 nM

Identify the reported IC50 for the following entry. CN(C)CCNC(=O)c1cc(NC(=O)Nc2ccc(-n3cnc4ncnc(N)c43)cc2)cc(C(F)(F)F)c1
85 nM

---

# testMethodNotes: Antitumor test, reduction in body weight
# Format: in vivo, male Balb/c nude mouse
# conditionsUsed: dosage 200 mg/kg, orally one time a day for 5 days, day 7 after starting administration
Friendly reminder: Body Weight Reduction ratio (%) below 6% is Fulfilled, at or above is Not fulfilled.

The following compounds have reported results that may help.
CNc1ncnc2c1ncn2-c1ccc(NC(=O)Nc2cc(CN3CCN(C)CC3)cc(C(F)(F)F)c2)cc1 [Table 2, Compound 25]: Fulfilled
CNc1ncnc2c1ncn2-c1ccc(NC(=O)Nc2cc(CN(C)C)cc(C(F)(F)F)c2)cc1 [Table 2, Compound 30]: Fulfilled
CN1CCN(Cc2cc(NC(=O)Nc3ccc(-n4cnc5c(N)ncnc54)cc3)cc(C(F)(F)F)c2)CC1 [Table 2, Compound 26]: Fulfilled

Please find the next compound below.
Could you please tell me whether Body Weight Reduction ratio (%) recorded for CCCNC(=O)Nc1ncnc2c1ncn2-c1ccc(NC(=O)Nc2ccc(Cl)c(C(F)(F)F)c2)cc1 [Table 1, Compound 119] is less than 6%?
Not fulfilled

---

The reader will find reported pIC50 values listed item by item below.
# assayedTarget: recombinant Raf-1 protein (activated type GST-Raf-1) (Homo sapiens, UniProt P04049)
# Construct: fused on or other part: GST tag fused to Raf-1
# Sequence (P04049 349-648 limits assumed): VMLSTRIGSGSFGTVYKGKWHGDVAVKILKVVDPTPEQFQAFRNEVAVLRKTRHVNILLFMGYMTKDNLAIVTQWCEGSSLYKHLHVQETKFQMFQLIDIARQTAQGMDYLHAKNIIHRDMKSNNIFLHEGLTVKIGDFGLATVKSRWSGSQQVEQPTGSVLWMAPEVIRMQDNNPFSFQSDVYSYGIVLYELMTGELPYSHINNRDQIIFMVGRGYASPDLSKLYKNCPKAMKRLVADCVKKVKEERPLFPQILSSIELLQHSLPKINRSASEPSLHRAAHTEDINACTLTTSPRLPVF
# testMethodNotes: RAF-1 enzyme inhibition test (33P incorporation into MEK 1 protein)
# conditionsUsed: 10 μM ATP, GST-MEK1 substrate, 30° C., 45 minutes; read-out: Raf-1 Enzyme Inhibition, 50% Enzyme Inhibition Concentration (IC50 value)
Where a name gives a salt, the structure may show the parent alone.
Keep it numeric: pIC50 is minus log10 of the concentration in mol/L.

CNC(=O)c1nccc2c1ncn2-c1ccc(NC(=O)Nc2ccc(Cl)c(C(F)(F)F)c2)cc1: 7.28

Recall and state the measured pIC50 for CNc1ncnc2c1ncn2-c1ccc(NC(=O)Nc2cc(OC3CCN(C)CC3)cc(C(F)(F)F)c2)cc1 .
6.57

Input CN1CCN(Cc2cc(NC(=O)Nc3ccc(-n4cnc5ncnc(N)c54)cc3)cc(C(F)(F)F)c2)CC1 , output reported pIC50.
7.28

Tell us which pIC50 value is on record for CC(=O)Oc1cccc2c1ccn2-c1ccc(NC(=O)Nc2ccc(Cl)c(C(F)(F)F)c2)cc1
7.33

Return pIC50 for the following compound: C=Cc1nc2c(NC(=O)NCCC)ncnc2n1-c1ccc(NC(=O)Nc2ccc(Cl)c(C(F)(F)F)c2)cc1
7.82

Quote pIC50 reported for CNc1ncnc2c1ncn2-c1ccc(NC(=O)Nc2ccc(CCCN3CCCCC3)c(C(F)(F)F)c2)cc1 please.
6.85

Specify reported pIC50 for the compound shown: CC(C)C[C@H](N)C(=O)Nc1ncnc2c1ncn2-c1ccc(NC(=O)Nc2ccc(Cl)c(C(F)(F)F)c2)cc1 [Table 1, Compound 96, hydrochloride]
7.36

---

# Test system: human colorectal cancer cell strain HCT 116
# testMethodNotes: Cell growth inhibition test, HCT 116
# Type: cell-based
# conditionsUsed: 72 hours, read-out: HCT116, 50% Growth Inhibition Concentration (IC50 value)
Counter-ions that a name gives are not always drawn.
testReadout: IC50 (nM)
Write the answer as a number in nM, unit excluded.

Some molecules with recorded IC50:
CCCNC(=O)Nc1ncnc2c1ncn2-c1ccc(NC(=O)Nc2ccc(Cl)c(C(F)(F)F)c2)cc1: 3700
CNc1ncnc2c1ncn2-c1ccc(N(O)C(=O)Nc2ccc(Cl)c(C(F)(F)F)c2)cc1: 3400
CN(C)/C=N\c1ncnc2c1ncn2-c1ccc(NC(=O)Nc2ccc(Cl)c(C(F)(F)F)c2)cc1: 3100

Give IC50 for the following molecule: CNc1ncnc2c1ncn2-c1ccc(NC(=O)Nc2ccc(CN3CCOCC3)c(C(F)(F)F)c2)cc1
900

// fetch IC50 given entry CNc1ncnc2c1ncn2-c1ccc(NC(=O)Nc2ccc(OCCN3CCOCC3)c(C(F)(F)F)c2)cc1
1900

Please report the measured IC50 for CCN1CCN(Cc2ccc(NC(=O)Nc3ccc(-n4cnc5c(NC)ncnc54)cc3)cc2C(F)(F)F)CC1
300

Specify measured IC50 for CC(C)C[C@H](N)C(=O)Nc1ncnc2c1ncn2-c1ccc(NC(=O)Nc2ccc(Cl)c(C(F)(F)F)c2)cc1 [Table 1, Compound 96, hydrochloride] .
2200

---

Reported pIC50 values follow for various molecules
# Tested on: human colorectal cancer cell strain HCT 116
# testMethodNotes: Cell growth inhibition test, HCT 116
# Type: cell-based
# conditionsUsed: 72 hours, read-out: HCT116, 50% Growth Inhibition Concentration (IC50 value)
# Description: Cell Growth Inhibition Test With respect to the compounds relating to the present invention and the known compound (BAY 43-9006), cell growth inhibition activity was measured. A sample compound was in-series diluted with dimethyl sulfoxide, and then was 1/50 diluted with a Ca^2+- and Mg^2+-free phosphate-bufferized physiological saline and its 20 μL was poured to a 96-well plate. […]
Note on units: pIC50 is unitless, being -log10 of a concentration expressed in mol/L.

Solved cases below.
CNc1ncnc2c1ncn2-c1ccc(NC(=O)Nc2ccc(OCCN(C)C)c(C(F)(F)F)c2)cc1 [Table 2, Compound 52]: 5.42
CNc1ncnc2c1ncn2-c1ccc(NC(=O)Nc2ccc(Cl)c(C(F)(F)F)c2)cc1.Cl [Table 1, Compound 36, hydrochloride]: 6.15
CNc1ncnc2c1ncn2-c1ccc(NC(=O)Nc2ccc(CN3CC(C)NC(C)C3)c(C(F)(F)F)c2)cc1 (stereo not shown) [Table 3, Compound 46]: 5.55

Attention now shifts to the item below.
Please list pIC50 recorded for the molecule CNc1ncnc2c1ncn2-c1ccc(NC(=O)Nc2ccc(OCCOC)c(C(F)(F)F)c2)cc1 [Table 3, Compound 41]
6.10
